# Tested on: Lactobacillus plantarum LMC-1 ID 1952 DSM 32252
# experimentalDetails: Antibiotic resistance profile (E-test, ABBiodisk)
# Format: cell-based
# testConditions: Lactiplantibacillus plantarum, DSM32252; Etest strips in agar; strain Lactobacillus plantarum LMC-1 ID 1952 DSM 32252; read-out: MIC
reportedMetric: MIC (µg/mL)

[[record]]
compound = "CO/N=C(\\C(=O)N[C@@H]1C(=O)N2C(C(=O)O)=C(COC(N)=O)CS[C@H]12)c1ccco1 [Cefuroxime]"
reportedmetric = "MIC"
inequalitysign = "="
observed = 0.064

[[record]]
compound = "NC[C@H]1O[C@H](O[C@H]2[C@H](O)[C@@H](O[C@H]3O[C@H](CO)[C@@H](O)[C@H](N)[C@H]3O)[C@H](N)C[C@@H]2N)[C@H](O)[C@@H](O)[C@@H]1O [Kanamycin]"
reportedmetric = "MIC"
inequalitysign = "="
observed = 64

[[record]]
compound = "CO[C@H]1/C=C/O[C@@]2(C)Oc3c(C)c(O)c4c(O)c(c(/C=N/N5CCN(C)CC5)c(O)c4c3C2=O)NC(=O)/C(C)=C\\C=C\\[C@H](C)[C@H](O)[C@@H](C)[C@@H](O)[C@@H](C)[C@H](OC(C)=O)[C@@H]1C [Rifampicin]"
reportedmetric = "MIC"
inequalitysign = "="
observed = 0.25

[[record]]
compound = "CN(C)[C@@H]1C(O)=C(C(N)=O)C(=O)[C@@]2(O)C(O)=C3C(=O)c4c(O)cccc4[C@@](C)(O)[C@H]3C[C@@H]12 [Tetracycline]"
reportedmetric = "MIC"
inequalitysign = "="
observed = 12

[[record]]
compound = "O=C(O)c1cn(C2CC2)c2cc(N3CCNCC3)c(F)cc2c1=O [Ciprofloxacin]"
reportedmetric = "MIC"
inequalitysign = ">"
observed = 32

[[record]]
compound = "CCC[C@@H]1C[C@@H](C(=O)N[C@@H]([C@H]2O[C@H](SC)[C@H](O)[C@@H](O)[C@H]2O)[C@H](C)Cl)N(C)C1 [Clindamycin]"
reportedmetric = "MIC"
inequalitysign = "="
observed = 2

[[record]]
compound = "CC[C@H]1OC(=O)[C@H](C)[C@@H](O[C@H]2C[C@@](C)(OC)[C@@H](O)[C@H](C)O2)[C@H](C)[C@@H](O[C@@H]2O[C@H](C)C[C@H](N(C)C)[C@H]2O)[C@](C)(O)C[C@@H](C)C(=O)[C@H](C)[C@@H](O)[C@]1(C)O [Erythromycin]"
reportedmetric = "MIC"
inequalitysign = "="
observed = 0.75

[[record]]
compound = "CO[C@@]1(NC(=O)Cc2cccs2)C(=O)N2C(C(=O)O)=C(COC(N)=O)CS[C@@H]21 [Cefoxitin]"
reportedmetric = "MIC"
inequalitysign = "="
observed = 64

[[record]]
compound = "CC1(C)S[C@@H]2[C@H](NC(=O)[C@H](N)c3ccccc3)C(=O)N2[C@H]1C(=O)O [Ampicillin]"
reportedmetric = "MIC"
inequalitysign = "="
observed = 0.032

[[record]]
compound = "CC(=O)NC[C@H]1CN(c2ccc(N3CCOCC3)c(F)c2)C(=O)O1 [Linezolid]"
reportedmetric = "MIC"
inequalitysign = "="
observed = 1.5

[[record]]
compound = "CC1(C)S[C@@H]2[C@H](NC(=O)[C@H](N)c3ccc(O)cc3)C(=O)N2[C@H]1C(=O)O [Amoxicillin]"
reportedmetric = "MIC"
inequalitysign = "="
observed = 0.19

[[record]]
compound = "C[C@@H](O)[C@H]1C(=O)N2C(C(=O)O)=C(SCCN=CN)C[C@H]12 [Imipenem]"
reportedmetric = "MIC"
inequalitysign = "="
observed = 0.047

[[record]]
compound = "CC[C@H]1OC(=O)[C@H](C)[C@@H](O[C@H]2C[C@@](C)(OC)[C@@H](O)[C@H](C)O2)[C@H](C)[C@@H](O[C@@H]2O[C@H](C)C[C@H](N(C)C)[C@H]2O)[C@](C)(O)C[C@@H](C)CN(C)[C@H](C)[C@@H](O)[C@]1(C)O [Azithromycin]"
reportedmetric = "MIC"
inequalitysign = "="
observed = 2

